Where these numbers come from: the supplement of paper PMC11208160

test: recombinant UMI read abundance after kanamycin selection (control-corrected) (log10(CPM+1)); higher = more efficient recombination; extreme values may be limits of the assay; sequences stand for … in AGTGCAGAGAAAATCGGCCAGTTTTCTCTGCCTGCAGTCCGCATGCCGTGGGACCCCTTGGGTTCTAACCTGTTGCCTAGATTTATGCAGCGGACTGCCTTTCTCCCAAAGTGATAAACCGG…AGGTTGGTTTCACT; site = the 11-nt donor
Parameter: recombinant UMI read abundance (log10)

{"Residue String": "ACAGTTGCATGGACCGGTTTTCCCGGTAATCCGTATTTGCA (site ACAGTATCTTG)", "Parameter": "recombinant UMI read abundance (log10)", "Meas Value": 0}
{"Residue String": "GCCATGCCATGGACCGGTTTTCCCGGTAATCCGTATTTGTA (site GCCACGCCTTA)", "Parameter": "recombinant UMI read abundance (log10)", "Meas Value": 0.0146}
{"Residue String": "GCCACGCCATGGACCGGTTTTCCCGGTAATCCGTATTTGTT (site GCCACGCCTAA)", "Parameter": "recombinant UMI read abundance (log10)", "Meas Value": 0.0554}
{"Residue String": "GACTAACCATGGACCGGTTTTCCCGGTAATCCGTATTTGGT (site GACCAACCTAC)", "Parameter": "recombinant UMI read abundance (log10)", "Meas Value": 0.00701}
{"Residue String": "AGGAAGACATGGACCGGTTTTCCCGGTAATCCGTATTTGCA (site AGGAAGACTGG)", "Parameter": "recombinant UMI read abundance (log10)", "Meas Value": 1.34}
{"Residue String": "GATAATCCATGGACCGGTTTTCCCGGTAATCCGTATTTGCT (site GATGATCCTAG)", "Parameter": "recombinant UMI read abundance (log10)", "Meas Value": 0}
{"Residue String": "ACCTAGACATGGACCGGTTTTCCCGGTAATCCGTATTTGAG (site ACCTAGACTCG)", "Parameter": "recombinant UMI read abundance (log10)", "Meas Value": 0.352}
{"Residue String": "AAAGCAGCATGGACCGGTTTTCCCGGTAATCCGTATTTGCT (site CAAGCAGCTAG)", "Parameter": "recombinant UMI read abundance (log10)", "Meas Value": 1.5}
{"Residue String": "CGTTAGGCATGGACCGGTTTTCCCGGTAATCCGTATTTGAG (site CGTTAGCCTCT)", "Parameter": "recombinant UMI read abundance (log10)", "Meas Value": 0.00789}

* * *

assay: recombinant UMI read abundance after kanamycin selection (control-corrected) (log10(CPM+1)); higher = more efficient recombination; extreme values may be limits of the assay; sequences stand for … in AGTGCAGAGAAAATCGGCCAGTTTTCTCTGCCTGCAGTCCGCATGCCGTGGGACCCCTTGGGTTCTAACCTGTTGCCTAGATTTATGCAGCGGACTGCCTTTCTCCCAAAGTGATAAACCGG…AGGTTGGTTTCACT; site = the 11-nt donor

{"Residue String": "GATTCATCATGGACCGGTTTTCCCGGTAATCCGTATTTGAG (site GATTCATCTCT)", "recombinant UMI read abundance (log10)": 1.31}
{"Residue String": "CGGTGGACATGGACCGGTTTTCCCGGTAATCCGTATTTGGG (site CGGTGGACTCC)", "recombinant UMI read abundance (log10)": 0.024}
{"Residue String": "GAGCTCACATGGACCGGTTTTCCCGGTAATCCGTATTTGAC (site GAGCTCACTTT)", "recombinant UMI read abundance (log10)": 0.00766}
{"Residue String": "CCTGGTTCATGGACCGGTTTTCCCGGTAATCCGTATTTGAC (site CCTGGTTCTGT)", "recombinant UMI read abundance (log10)": 0}
{"Residue String": "TAGCTAGCATGGACCGGTTTTCCCGGTAATCCGTATTTGAA (site TGGCTAGCTTT)", "recombinant UMI read abundance (log10)": 0.0087}
{"Residue String": "GGTTGCCCATGGACCGGTTTTCCCGGTAATCCGTATTTGAT (site GCTTGCCCTAT)", "recombinant UMI read abundance (log10)": 0.0066}
{"Residue String": "AACCGTCCATGGACCGGTTTTCCCGGTAATCCGTATTTGCT (site AACCGTCCTAG)", "recombinant UMI read abundance (log10)": 0.593}
{"Residue String": "AACCGTCCATGGACCGGTTTTCCCGGTAATCCGTATTTGCT (site AACCGTCCTAC)", "recombinant UMI read abundance (log10)": 0.00247}
{"Residue String": "CCGAAGGCATGGACCGGTTTTCCCGGTAATCCGTATTTGTG (site CCGAAGGCTCA)", "recombinant UMI read abundance (log10)": 0.495}
{"Residue String": "CTCTGCCCATGGACCGGTTTTCCCGGTAATCCGTATTTGAT (site CTCTGCCCTAT)", "recombinant UMI read abundance (log10)": 0.509}
{"Residue String": "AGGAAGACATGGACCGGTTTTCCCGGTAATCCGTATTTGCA (site AGGAACACTTT)", "recombinant UMI read abundance (log10)": 0.0161}
{"Residue String": "TGGCCTTCATGGACCGGTTTTCCCGGTAATCCGTATTTGGT (site TTGCCTTCTAC)", "recombinant UMI read abundance (log10)": 0.00662}
{"Residue String": "ATTAGGCCATGGACCGGTTTTCCCGGTAATCCGTATTTGTG (site ATTAGGCCTCA)", "recombinant UMI read abundance (log10)": 0.00967}
{"Residue String": "CTCTACACATGGACCGGTTTTCCCGGTAATCCGTATTTGTT (site CTCTACACTAT)", "recombinant UMI read abundance (log10)": 0.616}
{"Residue String": "CAGTCGACATGGACCGGTTTTCCCGGTAATCCGTATTTGGG (site CTGTCGACTCC)", "recombinant UMI read abundance (log10)": 0.0261}
{"Residue String": "GGCCCACCATGGACCGGTTTTCCCGGTAATCCGTATTTGTG (site GGCCCACCTCA)", "recombinant UMI read abundance (log10)": 0.0252}
{"Residue String": "TCCCTTCCATGGACCGGTTTTCCCGGTAATCCGTATTTGAG (site TCCCTTCCTCT)", "recombinant UMI read abundance (log10)": 0.0101}
{"Residue String": "GTGGACGCATGGACCGGTTTTCCCGGTAATCCGTATTTGAG (site GTGGACGCTCT)", "recombinant UMI read abundance (log10)": 1.56}

* * *

test: recombinant barcode read abundance after kanamycin selection (control-corrected) (log10(CPM+1)); higher = more efficient recombination; sequences stand for … in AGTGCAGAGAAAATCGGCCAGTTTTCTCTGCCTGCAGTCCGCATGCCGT…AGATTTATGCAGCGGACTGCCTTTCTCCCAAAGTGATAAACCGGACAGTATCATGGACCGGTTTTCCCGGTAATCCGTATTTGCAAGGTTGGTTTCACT; site = the 11-nt target
Parameter: recombinant barcode read abundance (log10)

{"Residue String": "TGTCTGCCTTGGGTTCTAACCTGTTGCCT (site TGTCTGCCTAG)", "Meas Value": 0.295}
{"Residue String": "GGAGAACCTTGGGTTCTAACCTGTTGCCT (site AGAGAACCTAG)", "Meas Value": 1.85}
{"Residue String": "TGTTGGACTTGGGTTCTAACCTGTTGCTT (site TGTTGGACTAA)", "Meas Value": 0.16}
{"Residue String": "GATTCTACTTGGGTTCTAACCTGTTGCTT (site GAATCTACTAA)", "Meas Value": 0.155}
{"Residue String": "AGTCGGTCTTGGGTTCTAACCTGTTGCAT (site GGTCCGTCTAT)", "Meas Value": 0.0825}
{"Residue String": "TGTCAGGCTTGGGTTCTAACCTGTTGCCT (site TGTCAGGCTAG)", "Meas Value": 0.0749}
{"Residue String": "ACTCACCCTTGGGTTCTAACCTGTTGCGG (site CTATTAACTTA)", "Meas Value": 0.126}
{"Residue String": "TGTAGTCCTTGGGTTCTAACCTGTTGCAT (site TGTAGTCCTAT)", "Meas Value": 0.097}
{"Residue String": "CGGGCCTCTTGGGTTCTAACCTGTTGCTA (site CGGGCCTCTTA)", "Meas Value": 2.38}
{"Residue String": "TGCCGAACTTGGGTTCTAACCTGTTGCCT (site CGCCGAACTAG)", "Meas Value": 0.16}
{"Residue String": "CTAGTAGCTTGGGTTCTAACCTGTTGCTC (site CTAGTAGCTGA)", "Meas Value": 1.74}
{"Residue String": "TAGGCTCCTTGGGTTCTAACCTGTTGCCT (site TAAGATCCTAG)", "Meas Value": 0.205}
{"Residue String": "AATTAGTCTTGGGTTCTAACCTGTTGCGG (site AGTTAGTCTCC)", "Meas Value": 0.312}
{"Residue String": "TACCGCCCTTGGGTTCTAACCTGTTGCGT (site TACCGCCCTAC)", "Meas Value": 1.95}
{"Residue String": "TCGTGCTCTTGGGTTCTAACCTGTTGCCT (site TCGTGCCCTAG)", "Meas Value": 0.282}
{"Residue String": "AATTGAGCTTGGGTTCTAACCTGTTGCCT (site AATTTAGCTAG)", "Meas Value": 0.242}
{"Residue String": "CTCCGCCCTTGGGTTCTAACCTGTTGCCT (site CTCCGCCCTAG)", "Meas Value": 0.776}
{"Residue String": "CTGAGCCCTTGGGTTCTAACCTGTTGCCT (site CTGCGCCCTAG)", "Meas Value": 0.448}
{"Residue String": "TACTGAGCTTGGGTTCTAACCTGTTGCCT (site CACTGAGCTAG)", "Meas Value": 0.0308}
{"Residue String": "CGTCGTACTTGGGTTCTAACCTGTTGCCT (site CGGCGTACTAG)", "Meas Value": 0.0235}
{"Residue String": "CTACCATCTTGGGTTCTAACCTGTTGCCT (site CTACCATCTAG)", "Meas Value": 0.948}
